// data source = the supplement of paper PMC10567573

Recorded protein stability index values for a group of variants are listed next.
B1: ZNF207 (parent)
chain: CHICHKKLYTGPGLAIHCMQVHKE

# Variants of: B1
# run-description: protein stability index of a GFP-peptide fusion (GPS, HEK-293T) (PSI 1-6); higher = more stable;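 note: lentivirally expressed fusions sorted by FACS into six bins by GFP to DsRed ratio, PSI derived from sequencing read proportions per bin multiplied by bin number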
# condition-context: c terminus: a fixed tail appended
Give the figure only, with no unit attached.

Solved cases (2 shown):
record-sequence | observation-type | result
CHICHLKLYTGPGLAIHCMQVHKE [K6L] | protein stability index | 2.36
CHICHKKLCTGPGLAIHCMQVHKE [Y9C] | protein stability index | 3.39

// protein stability index lookup, key: CHICHKKLYTGPGLAIHCMQVHHE [K23H]
3.48

Now the same for CHICHKKLYTGPGLAAHCMQVHKE [I16A]
3.54

Record: CHICHKKLYTGPGLAIHCMQVHTE [K23T]
2.61

CHICHKKLYTGPGLAIHQMQVHKE [C18Q] , same question.
2.99

Check CHICHKKLYTGPGLAHHCMQVHKE [I16H] too.
4.39
